# System tested: T1, human chemokine (C-C motif) receptor 8 (CCR8) protein (human, UniProt P51685 1-355)
# T1 construct: whole, on cells; also called human CCR8
# Assay protocol: cell binding, CCR8-expressing CHO-K1 cells, curve fit
Experimental endpoint: Span

INSERT INTO assay_data (binder, reading) VALUES
  ('88-H1L2 (antibody, V domains shown, Humanized 88D2C6) VH: EVQLVESGGGLVQPGGSLKLSCAASGFTFNPNAMNWVRQASGKGLEWVGRIRSKSNNYATYYADSVKDRFTISRDDSKNTAYLQMNSLKTEDTAVYYCTRGKDDGYRHYAMDYWGQGTTVTVSS VL: DIVMTQSPLSLPVTPGEPASISCRSSKSLLHSNANTYLYWFLQKPGQSPQLLIYRMSNLASGVPDRFSGSGSGTAFTLKISRVEAEDVGVYYCMQHLEYPFTFGGGTKVEIK', 30100);

Numbers sourced from patent US20220195057A1.
